This collection of values is drawn from patent US20260184782A1.

Molecular target: T1, recombinant human TIGIT (human, UniProt Q495A1 22-141, limits assumed)
T1 construct: recombinant human TIGIT used in Carterra SPR; also called hTIGIT
T1 sequence (looked up): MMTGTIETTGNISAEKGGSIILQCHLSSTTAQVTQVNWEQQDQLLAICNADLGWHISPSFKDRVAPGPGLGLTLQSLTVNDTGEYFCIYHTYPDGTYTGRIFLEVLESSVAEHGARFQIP
Assay: SPR Carterra, average
Measured koff accompanies every entry in the list below.

binder	endpoint unit	koff
TIGIT-SC45 (Fc fusion, VHH-Fc fusion in assay) VHH: EVQLVESGGGLVQPGGSLRLSCAASGGTFNAMGWFRQAPGKEREWVASVLRGGYTWYADSVKGRFTISADNSKNTAYLQMNSLKPEDTAVYYCAKDGGSSGTYQNWWGQGTLVTVSS	s⁻¹	0.00929
TIGIT-SC80 (Fc fusion, VHH-Fc fusion in assay) VHH: EVQLVESGGGLVQPGGSLRLSCAASGNIPPINAMGWFRQAPGKEREFVAAINYSGGSTYYADSVKGRFTISADNSKNTAYLQMNSLKPEDTAVYYCARWHYDILTGYYWLDSWGQGTLVTVSS	s⁻¹	0.00179
TIGIT-SC52 (Fc fusion, VHH-Fc fusion in assay) VHH: EVQLVESGGGLVQPGGSLRLSCAASGFLFDSYAMGWFRQAPGKEREFVAAISTGGGWRTYADSVKGRFTISADNSKNTAYLQMNSLKPEDTAVYYCAKRGNDNWYFDLWGQGTLVTVSS	s⁻¹	0.00175
TIGIT-SC144 (Fc fusion, VHH-Fc fusion in assay) VHH: EVQLVESGGGLVQPGGSLRLSCAASGFTLENNMMGWFRQAPGKEREFVAAISPSGTLRAYADSVKGRFTISADNSKNTAYLQMNSLKPEDTAVYYCAGIHDSGVPLGNWGQGTLVTVSS	s⁻¹	0.00574
TIGIT-SC85 (Fc fusion, VHH-Fc fusion in assay) VHH: EVQLVESGGGLVQPGGSLRLSCAASGRTFSPYTMGWFRQAPGKEREWVAGISQSGGSTAYADSVKGRFTISADNSKNTAYLQMNSLKPEDTAVYYCARDLNAMGDAYDIWGQGTLVTVSS	s⁻¹	0.000599
TIGIT-SC74 (Fc fusion, VHH-Fc fusion in assay) VHH: EVQLVESGGGLVQPGGSLRLSCAASGRTFANNAMGWFRQAPGKEREFVAAINWSGGNTYYADSVKGRFTISADNSKNTAYLQMNSLKPEDTAVYYCAKWSYYGSGLYGMDVWGQGTLVTVSS	s⁻¹	0.00329
TIGIT-SC69 (Fc fusion, VHH-Fc fusion in assay) VHH: EVQLVESGGGLVQPGGSLRLSCAASGGTFNGRAMGWFRQAPGKEREFVAAISSIGDTYYADSVKGRFTISADNSKNTAYLQMNSLKPEDTAVYYCARWRLDRRQGFYYAMDVWGQGTLVTVSS	s⁻¹	0.00276
TIGIT-SC37 (Fc fusion, VHH-Fc fusion in assay) VHH: EVQLVESGGGLVQPGGSLRLSCAASGNTFSGGFMGWFRQAPGKEREWVASVLRGGYTWYADSVKGRFTISADNSKNTAYLQMNSLKPEDTAVYYCVFGGVWQDVWGQGTLVTVSS	s⁻¹	0.00507
